Cited source: patent US20120083522A1

Tested on: human Factor XI mRNA
Assay: Dose-dependent inhibition and IC50 in HepG2 cells, microwalk gapmers, electroporation (Example 16)
Format: cell-based
Settings: electroporation, 1,500 nM
Protocol: These gapmers were tested at various doses in HepG2 cells. […] After a treatment period of approximately 16 hours, RNA was isolated from the cells and Factor XI mRNA levels were measured by quantitative real-time PCR. […] Factor XI mRNA levels were adjusted according to total RNA content, as measured by RIBOGREEN. […]
In the oligonucleotide strings, read from the 5' end, every base follows the letter of its sugar. An asterisk marks phosphorothioate; unmarked linkages are phosphodiester. Other units and linkages are bracketed, terminal groups are in braces. A string of capitals states the bases alone. e = 2'-O-(2-methoxyethyl) (MOE); [5mC] = 5-methylcytosine; d = 2'-deoxy (DNA)
MEASURE_NAME: percent inhibition of Factor XI mRNA (%)

SUBSTANCE: 449709 (antisense eG*e[5mC]*eA*e[5mC]*dA*dG*dT*dT*dT*d[5mC]*dT*dG*dG*d[5mC]*eA*eG*eG*e[5mC]) [compound 449709]
MEASURE_NAME: percent inhibition of Factor XI mRNA
TEST_VALUE: 80
--
SUBSTANCE: 449708 (antisense eA*e[5mC]*eA*dG*dT*dT*dT*d[5mC]*dT*dG*dG*e[5mC]*eA*eG) [compound 449708]
MEASURE_NAME: percent inhibition of Factor XI mRNA
TEST_VALUE: 22
--
SUBSTANCE: 445522 (antisense eG*e[5mC]*eA*e[5mC]*eA*dG*dT*dT*dT*d[5mC]*dT*dG*dG*e[5mC]*eA*eG*eG*e[5mC]) [compound 445522]
MEASURE_NAME: percent inhibition of Factor XI mRNA
TEST_VALUE: 83

====

Measured Body weight, listed per entry for reference.
test: Cynomolgus monkeys: body and organ weights (Example 29); assay type: in vivo; conditions: escalating doses 5, 10, 25 mg/kg s.c., day 43
In the oligonucleotide strings, read from the 5' end, every base follows the letter of its sugar. An asterisk marks phosphorothioate; unmarked linkages are phosphodiester. Other units and linkages are bracketed, terminal groups are in braces. A string of capitals states the bases alone. e = 2'-O-(2-methoxyethyl) (MOE); [5mC] = 5-methylcytosine; d = 2'-deoxy (DNA)
MEASURE_NAME: Body weight (g)

SUBSTANCE: ISIS 416858: gapmer of Table 8 (antisense eA*e[5mC]*eG*eG*e[5mC]*dA*dT*dT*dG*dG*dT*dG*d[5mC]*dA*d[5mC]*eA*eG*eT*eT*eT)
MEASURE_NAME: Body weight
MEASUREMENT_UNIT: g
TEST_VALUE: 2607
--
SUBSTANCE: ISIS 417002: gapmer of Table 8 (antisense eG*eG*dT*dG*d[5mC]*dA*d[5mC]*dA*dG*dT*dT*dT*d[5mC]*dT*dG*eG*e[5mC]*eA*eG*eG)
MEASURE_NAME: Body weight
MEASUREMENT_UNIT: g
TEST_VALUE: 2630
--
SUBSTANCE: ISIS 416864: gapmer of Table 8 (antisense eG*eG*e[5mC]*eA*eG*d[5mC]*dG*dG*dA*d[5mC]*dG*dG*d[5mC]*dA*dT*eT*eG*eG*eT*eG)
MEASURE_NAME: Body weight
MEASUREMENT_UNIT: g
TEST_VALUE: 3355
--
SUBSTANCE: ISIS 416850: gapmer of Table 8 (antisense eT*eG*e[5mC]*eA*e[5mC]*dA*dG*dT*dT*dT*d[5mC]*dT*dG*dG*d[5mC]*eA*eG*eG*e[5mC]*e[5mC])
MEASURE_NAME: Body weight
MEASUREMENT_UNIT: g
TEST_VALUE: 2544
--
SUBSTANCE: ISIS 416838: gapmer of Table 6 (antisense eG*e[5mC]*eA*eA*e[5mC]*d[5mC]*dG*dG*dG*dA*dT*dG*dA*dT*dG*eA*eG*eT*eG*e[5mC])
MEASURE_NAME: Body weight
MEASUREMENT_UNIT: g
TEST_VALUE: 2700
